Property: pKd; scope: individual molecules
# tested on: GDP-bound KRAS wild-type protein (Homo sapiens)
# experiment description: Binding to KRAS by surface plasmon resonance (SPR), dissociation constant KD
# test conditions: Single Cycle Kinetics, 1:1 binding model
pKd: −log10 of the molar value.
measured endpoint: pKd

[
  {
    "smiles representation": "CC[C@H](C)[C@@H]1NC(=O)[C@H](CC)N(C)C(=O)C[C@@H](C(=O)N(C)C)N(C)C(=O)[C@H](C2CCCC2)N(C)C(=O)C2(CCC2)NC(=O)[C@@H]2C[C@@H](C(F)(F)F)CN2C(=O)[C@H](CCc2cc(F)c(C(F)(F)F)c(F)c2)NC(=O)CN(C)C(=O)[C@H](CC2CCCCC2)N2CC/C=C\\C[C@@H](C2=O)N(C)C(=O)CN(C)C1=O",
    "result value": 9.44
  },
  {
    "smiles representation": "C#CC[C@H]1C(=O)N[C@@H]([C@@H](C)CC)C(=O)N(C)CC(=O)N(C)[C@H]2CC[C@@H](C)CN(C2=O)[C@@H](Cc2ccc(C(F)(F)F)cc2)C(=O)N(C)CC(=O)N[C@@H](CCc2ccc(C(F)(F)F)c(Cl)c2)C(=O)N2CCC[C@H]2C(=O)NC2(CCCC2)C(=O)N(C)[C@@H](C2CCCC2)C(=O)N(C)[C@H](C(=O)N(C)C)CC(=O)N1C",
    "result value": 10.09
  }
]

---

# Tested on: human lung cancer strain NCI-H441
# Format: cell-based
# Protocol: A test compound was dispensed into a U-bottom 384-well plate as 40 nL serially diluted dimethyl sulfoxide solutions using a liquid handler Echo (LABCYTE). […] This cell suspension was dispensed in an amount of 40 µL per well into a plate containing the test compound, and cultured at 37°C in a 5% carbon dioxide gas incubator. Four days later, 20 µL of CellTiter-Glo (registered trademark) (Promega) was added to each well and […] was measured. […]
measured endpoint: IC50 (nM)

[
  {
    "smiles representation": "CCO[C@@H]1C[C@H]2C(=O)N(C)C3(CCC3)C(=O)N(C)[C@@H](C3CCCC3)C(=O)N(C)[C@H](C(=O)N(C)C)CC(=O)N(C)[C@@H](CC(C)C)C(=O)N[C@@H]([C@@H](C)CC)C(=O)N(C)CC(=O)N(C)[C@H]3C/C=C\\CCN(C3=O)[C@@H](Cc3ccc(C(F)(F)F)cc3)C(=O)N(C)CC(=O)N[C@@H](CCc3cc(F)c(C(F)(F)F)c(F)c3)C(=O)N2C1",
    "measured endpoint": "IC50",
    "u": "nM",
    "result value": 2.2
  },
  {
    "smiles representation": "CC[C@H](C)[C@@H]1NC(=O)[C@H](CC2CCCC2)N(C)C(=O)C[C@@H](C(=O)N(C)C)N(C)C(=O)[C@H](C2CCCC2)N(C)C(=O)C2(CCC2)NC(=O)[C@@H]2C[C@@H](C(F)(F)F)CN2C(=O)[C@H](CCc2cc(F)c(C(F)(F)F)c(F)c2)NC(=O)CN(C)C(=O)[C@H](Cc2ccc(F)cc2)N2CC/C=C\\C[C@@H](C2=O)N(C)C(=O)CN(C)C1=O",
    "measured endpoint": "IC50",
    "u": "nM",
    "result value": 28.1
  }
]

---

# tested on: GDP-bound KRAS wild-type protein (Homo sapiens, UniProt P01116)
# Sequence (P01116 1-188 isoform P01116-2): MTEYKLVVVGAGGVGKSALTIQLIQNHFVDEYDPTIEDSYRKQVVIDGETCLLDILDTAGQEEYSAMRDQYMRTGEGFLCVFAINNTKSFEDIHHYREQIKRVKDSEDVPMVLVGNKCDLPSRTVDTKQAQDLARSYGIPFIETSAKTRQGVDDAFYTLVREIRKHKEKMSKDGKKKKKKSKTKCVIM
# experiment description: Binding to KRAS by surface plasmon resonance (SPR), dissociation constant KD
# test conditions: 1:1 binding model
pKd: −log10 of the molar value.

[
  {
    "compound": "CCC[C@H]1C(=O)N[C@@H]([C@@H](C)CC)C(=O)N2CCC[C@H]2C(=O)N(C)[C@H]2C/C=C\\CCN(C2=O)[C@@H](Cc2ccc(C(F)(F)F)cc2)C(=O)N(C)CC(=O)N[C@@H](CCc2ccc(C(F)(F)F)c(OC)c2)C(=O)N2C[C@@H](C)C[C@H]2C(=O)N(C)C2(CCC2)C(=O)N(C)[C@@H](C2CCCC2)C(=O)N(C)[C@H](C(=O)N(C)C)CC(=O)N1C [PP2362]",
    "pKd": 10.12
  },
  {
    "compound": "CC[C@H](C)[C@@H]1NC(=O)[C@H](COC)N(C)C(=O)C[C@@H](C(=O)N(C)CC)N(C)C(=O)[C@H](C2CCCC2)N(C)C(=O)C2(CC(C)(C)C2)NC(=O)[C@@H]2CC(F)(F)CN2C(=O)[C@H](CCc2ccc(C(F)(F)F)c(Cl)c2)NC(=O)CN(C)C(=O)[C@H](Cc2ccc(C(F)(F)F)cc2)N2CC/C=C\\C[C@@H](C2=O)N(C)C(=O)CN(CC)C1=O [PP3135]",
    "pKd": 8.96
  },
  {
    "compound": "CCO[C@@H]1C[C@H]2C(=O)NC3(CC(C)(C)C3)C(=O)N(C)[C@@H](C3CCCC3)C(=O)N(C)[C@H](C(=O)N(C)CC)CC(=O)N(C)[C@@H](CC(C)C)C(=O)N[C@@H]([C@@H](C)CC)C(=O)N(C)CC(=O)N(C)[C@H]3C/C=C\\CCN(C3=O)[C@@H](Cc3ccc(C(F)F)cc3)C(=O)N(C)CC(=O)N[C@@H](CCc3cc(C)c(C(F)F)c(F)c3)C(=O)N2C1 [PP3145]",
    "pKd": 9.16
  }
]

Sourced from patent EP4603105A1
